Entry source: patent US8173635B2

Biological target: PKC alpha kinase (Homo sapiens, UniProt P17252)
Test: PKC alpha kinase inhibition, coupled-enzyme NADH absorbance assay (Ki)
Format: biochemical
Conditions: 130 μM ATP, 4.5 nM PKC alpha, 30° C.; read-out: Ki PKC alpha
So I've got a bunch of compounds here, and I need their Ki values.

Known Ki results, listed for orientation:
compound: Cc1cc(-c2ccnc3[nH]nc(Cl)c23)cc(C2(CN)CCC2)c1
result: < 500 nM
--
compound: C=C1CCc2ccc(-c3ccnc4[nH]ncc34)cc21
result: > 2800 nM
--
compound: CCc1n[nH]c2nccc(-c3cc(CCCN)cc(C4(C#N)CC4)c3)c12
result: < 2800 nM

Working through the 6 compounds below one at a time, give Ki for each.
1. N#CCCc1cc(-c2ccnc3[nH]ncc23)cc(C2(C#N)CC2)c1
2. CC#CC[C@](C)(CN)c1cccc(-c2ccnc3[nH]ncc23)c1
3. COC(CN)c1cc(C)cc(-c2ccnc3[nH]nc(C(F)(F)F)c23)c1 (stereo not drawn)
4. OCC1(c2cccc(-c3ccnc4[nH]nc(C(F)(F)F)c34)c2)CC1
5. NCC1(c2cc(F)cc(-c3ccnc4[nH]nc(Cl)c34)c2)CCOCC1
6. CCc1cc(-c2ccnc3[nH]ncc23)cc(C(C)(CC)CN)c1 (stereo not drawn)

1: > 1200 nM; 2: < 50 nM; 3: < 500 nM; 4: < 2800 nM; 5: < 500 nM; 6: < 500 nM

* * *

Target: PKC alpha kinase (Homo sapiens, UniProt P17252)
Assay: PKC alpha kinase inhibition, coupled-enzyme NADH absorbance assay (Ki)
Assay type: biochemical
Details: 130 μM ATP, 4.5 nM PKC alpha, 30° C.; read-out: Ki PKC alpha
Method: An assay buffer solution was prepared which consisted of 100 mM HEPES (pH 7.5), 10 mM MgCl2, 25 mM NaCl, 0.1 mM EDTA, 100 μM CaCl2 and 0.01% Brij. […] To 16 μL of this enzyme buffer, in a 384 well plate, was added 1 μL of VRT stock solution in DMSO. […] Initial rate data was determined from the rate of change of absorbance at 340 nm (corresponding to stoichiometric consumption of NADH) using a Molecular Devices Spectramax plate reader (Sunnyvale, Calif.) over 15 mins at 30° C. […]
pKi: −log10 of the molar value.
So I've got a bunch of compounds here, and I need their pKi values.

compound: CCCc1cc(-c2ccnc3[nH]ncc23)cc(C(C)(CC)CN)c1 (stereo not drawn)
measurement kind: pKi
result: > 5.55

compound: CC(C)(C#N)c1cc(Br)cc(-c2ccnc3[nH]ncc23)c1
measurement kind: pKi
result: > 5.55

Working through the 7 compounds below one at a time, give pKi for each.
1. C#CCC(CC)(CN)c1cccc(-c2ccnc3[nH]ncc23)c1 (stereo not drawn)
2. CCC1(c2cccc(-c3ccnc4[nH]ncc34)c2)CNC(=O)O1 (stereo not drawn)
3. C=CCc1cc(-c2ccnc3[nH]ncc23)cc(C(C)(C)CN)c1
4. CC(C)(C#N)c1cc(-c2ccnc3[nH]ncc23)cc(N2CCC2)c1
5. CCC(C)(C#N)c1cc(CCO)cc(-c2ccnc3[nH]ncc23)c1 (stereo not drawn)
6. NC(CC1CCCCC1)c1cccc(-c2ccnc3[nH]nc(C(F)(F)F)c23)c1 (stereo not drawn)
7. C/C=C\C1(c2cccc(-c3ccnc4[nH]ncc34)c2)CCNC1 (stereo not drawn)

> 6.30
> 6.30
> 5.55
< 5.55
> 5.55
< 5.92
> 6.30
